Reference source for all entries: ChEMBL document CHEMBL4342426

Experiment: physchem
Conditions: PBS buffer, pH 7.4
Description: Kinetic solubility of compound in PBS buffer at pH 7.4
QUANTITY: solubility kinetic (µg/mL)

1 = CC(C)c1cc(C(=O)N2CCCC(c3cc4ncccc4[nH]3)C2)on1 (configuration not stated)
2 = CC(C)c1cc(C(=O)N2CC=C(c3cc4ncccc4[nH]3)CC2)on1
Of 1 and 2 , whose reported solubility kinetic is the larger number? // output: label of the selected item 1

###

Assay: in vitro
Details: human, liver microsomes
Description: Metabolic stability in human liver microsomes assessed as intrinsic clearance at 0.5 uM incubated for 30 mins by LC-MS/MS analysis
QUANTITY: microsomal CLint at 0.5 h, 0.5 µM (µL/min/mg)

Some compounds with recorded microsomal CLint at 0.5 h, 0.5 µM:
O=C(Nc1ccc(-c2cc3ncccc3[nH]2)cc1)c1ccccc1 : 97.5
O=C(c1ccccc1)N1CCC(O)(c2cc3ncccc3[nH]2)CC1 : 31
Cc1ccoc1C(=O)N1CCCC(c2cc3ncccc3[nH]2)C1 (stereo unspecified) : 129

P = CC(C)(C)OC(=O)N1CCCC(c2cn3cccnc3n2)C1 (stereo unspecified)
Q = O=C(c1ccccc1)N1C=C(c2cc3ncccc3[nH]2)CCC1
Short answer wanted: higher microsomal CLint at 0.5 h, 0.5 µM, P or Q ? Select an item and report its label. Q
(Q: 238 µL/min/mg, P: 38 µL/min/mg)

###

Assay: in vitro
Conditions: human, liver microsomes
QUANTITY: CLint scaled at 0.5 h, 0.5 µM (mL/min/kg)

Consider the worked cases shown below.
COc1ccc2[nH]c(C3CCCN(C(=O)c4ccc(F)cc4)C3)cc2n1 (configuration not stated) : 35
O=C(c1ccc(C(F)(F)F)nc1)N1CCCC(c2cc3ncccc3[nH]2)C1 (configuration not stated) : 50.3
N#Cc1ccc(C(=O)N2CCCC(c3cc4ncccc4[nH]3)C2)cc1 (configuration not stated) : 51.5
O=C(c1cc(C(F)(F)F)no1)N1CCCC(c2cc3ncc(Br)cc3[nH]2)C1 (configuration not stated) : 193
O=C(Cc1ccccc1)N1CCN(c2nc3ccccc3s2)CC1 : 210

1 = O=C(c1ccc(F)cc1)N1CCC(c2cc3ncccc3[nH]2)C1 (configuration not stated)
2 = OC1(c2cc3ncccc3[nH]2)CCN(Cc2ccccc2)CC1
3 = O=C(c1cc(C(F)(F)F)n[nH]1)N1CCCC(c2cc3ncccc3[nH]2)C1 (configuration not stated)
Please rank these compounds by CLint scaled at 0.5 h, 0.5 µM in descending order. Give the labels in the order specified. 3, 2, 1

I = O=C(c1ccccc1)N1CCCC(c2cn3ncccc3n2)C1 (configuration not stated)
II = COc1cc(OC)c2cc(C(=O)N3CCCC(c4cc5ncccc5[nH]4)C3)[nH]c2c1 (configuration not stated)
III = COc1cccc(C(=O)N2CCCC(c3cc4ncccc4[nH]3)C2)c1OC (configuration not stated)
IV = O=C(c1cc(C(F)(F)F)no1)N1CCCC(c2cc3ncc(-c4ccccc4)cc3[nH]2)C1 (configuration not stated)
Sequence the entries by CLint scaled at 0.5 h, 0.5 µM, beginning with the highest number. Put the labels in the order asked and list them. IV, II, I, III
(IV: 1350 mL/min/kg, II: 838 mL/min/kg, I: 167 mL/min/kg, III: 110 mL/min/kg)

###

System: Trypanosoma brucei rhodesiense
Assay: microbe, parasite or virus in culture
Conditions: STIB900, 72 h
Description: Antiprotozoal activity against Trypanosoma brucei rhodesiense STIB900 trypomastigotes incubated for 72 hrs by resazurin dye based fluorimetric analysis
QUANTITY: IC50 (µM)

In the examples that follow, each entry is paired with its recorded IC50.
O=C(c1cc(C(F)(F)F)no1)N1CCCC(c2cc3ncc(Br)cc3[nH]2)C1 (stereo not given) : 22.9
COc1ccc2[nH]c(C3CCCN(C(=O)c4ccc(F)cc4)C3)cc2n1 (stereo not given) : 19.6
O=C(Nc1cccc(-c2cc3ncccc3[nH]2)c1)c1ccccc1 : 4.6
COc1cc(OC)c2cc(C(=O)N3CCCC(c4cc5ncccc5[nH]4)C3)[nH]c2c1 (stereo not given) : 7.33
COc1ccc(OC)c2[nH]c(C(=O)N3CCCC(c4cc5ncccc5[nH]4)C3)cc12 (stereo not given) : 9.55
COc1cc(C(=O)N2CCCC(c3cc4ncccc4[nH]3)C2)on1 (stereo not given) : 64
CC(C)(C)OC(=O)N1CCCC(O)(c2cc3ncccc3[nH]2)C1 (stereo not given) : 64
O=C(c1cc(C(F)(F)F)no1)N1CCC(c2cc3ncccc3[nH]2)C1 (stereo not given) : 64

a = O=C(c1cncnc1)N1CCCC(c2cc3ncccc3[nH]2)C1 (stereo not given)
b = O=C(c1ccc(F)cc1)N1CCC(c2cc3ncccc3[nH]2)C1 (stereo not given)
Which of these two has the smaller recorded IC50: a or b ? Select an item and report its label. b
(b: 43.9 µM, a: 64 µM)
